- target.system: Coagulation factor VII (Homo sapiens, UniProt P08709)
- Sequence (P08709 61-212 limits assumed): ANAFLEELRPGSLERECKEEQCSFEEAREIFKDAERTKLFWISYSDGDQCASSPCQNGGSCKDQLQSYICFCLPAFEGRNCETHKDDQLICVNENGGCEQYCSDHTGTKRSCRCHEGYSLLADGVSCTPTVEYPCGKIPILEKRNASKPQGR
- Sequence (P08709 213-466 limits assumed): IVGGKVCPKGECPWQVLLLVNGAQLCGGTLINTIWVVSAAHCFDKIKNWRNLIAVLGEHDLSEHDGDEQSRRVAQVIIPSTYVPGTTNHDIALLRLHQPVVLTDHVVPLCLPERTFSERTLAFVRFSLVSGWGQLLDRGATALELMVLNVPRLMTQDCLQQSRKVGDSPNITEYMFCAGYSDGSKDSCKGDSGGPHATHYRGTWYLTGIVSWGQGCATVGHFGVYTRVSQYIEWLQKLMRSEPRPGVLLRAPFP
endpoint.label: pKi
Keep in mind that pKi stands for -log10 of concentration in molar terms.

CN(C)CCNC(=O)NCc1cccc(-c2cc(CC(=O)O)cc(-c3cc4nc(N)ccc4[nH]3)c2O)c1 | 5.85

Lookup: Kindly state the measured pKi obtained for `CS(=O)(=O)c1cccc(-c2cc(CC(=O)O)cc(-c3cc4nc(N)ccc4[nH]3)c2O)c1` with Coagulation factor VII (Homo sapiens, UniProt P08709).
Found: 5.13
